- target_or_system: IRAK4 (Homo sapiens, UniProt Q9NWZ3)
- Construct: endogenous in cells; host or cells: Karpas299
- Sequence (Q9NWZ3 whole entry): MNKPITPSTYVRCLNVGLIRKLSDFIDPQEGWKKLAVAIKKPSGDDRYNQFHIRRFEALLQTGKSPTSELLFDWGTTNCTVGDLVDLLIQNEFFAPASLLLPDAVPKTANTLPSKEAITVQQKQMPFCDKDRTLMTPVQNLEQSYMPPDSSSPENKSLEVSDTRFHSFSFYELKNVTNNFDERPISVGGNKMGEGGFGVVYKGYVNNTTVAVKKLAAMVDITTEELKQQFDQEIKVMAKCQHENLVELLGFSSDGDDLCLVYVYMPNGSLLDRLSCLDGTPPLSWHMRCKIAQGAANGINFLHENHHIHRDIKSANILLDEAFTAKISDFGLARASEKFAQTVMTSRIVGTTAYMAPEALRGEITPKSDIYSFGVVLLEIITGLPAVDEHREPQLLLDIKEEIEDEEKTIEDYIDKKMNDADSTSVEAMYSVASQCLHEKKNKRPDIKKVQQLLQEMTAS
- experiment_notes: IRAK4 Degradation Assay (Karpas299, HTRF/TR-FRET)
- Format: cell-based
- conditions: Karpas-299 cells, 5 h treatment; read-out: IRAK4 in Karpas-299 (5 h) DC50
parameter_measured: DC50 (nM)

molecule | parameter_measured | value_units | val
COC[C@@H]1CN([C@H]2CC[C@H](n3cc4cc(NC(=O)c5ccc6cc(C#N)cnn56)c(C(C)(C)O)cc4n3)CC2)CCN1CC1CN(c2cc(F)c([C@H]3CCC(=O)NC3=O)c(F)c2)C1 [Example 358] | DC50 | nM | 1.9
CC1(C)CN(c2cc(F)c([C@H]3CCC(=O)NC3=O)c(F)c2)C[C@@H]1C(=O)N1CCN([C@H]2CC[C@H](n3cc(NC(=O)c4coc(-c5ccnc(NCC(F)(F)F)c5)n4)c(C(F)F)n3)CC2)CC1 [Example 18] | DC50 | nM | 100
[2H]C([2H])([2H])Oc1cc2nn([C@H]3CC[C@H](N4CCN(C(=O)C5CN(c6cc(F)c([C@H]7CCC(=O)NC7=O)c(F)c6)C5)CC4)CC3)cc2cc1NC(=O)c1cccc(C(F)(F)F)n1 [Example 165] | DC50 | nM | 13

P = CC(C)(O)c1cc2nc(C3CCN(C4CCN(C(=O)[C@@H]5CCN(c6cc(F)c([C@H]7CCC(=O)NC7=O)c(F)c6)C5)CC4)CC3)cn2cc1NC(=O)c1cccc(C(F)(F)F)n1 [Example 127]
Q = CC(C)(O)c1cc2nn([C@H]3CC[C@H](N4CCN([C@H]5C[C@@H](c6cc(F)c([C@H]7CCC(=O)NC7=O)c(F)c6)C5)CC4)CC3)cc2cc1NC(=O)c1ccc2cc(C#N)cnn12 [Example 363]
Min DC50? P | Q Reply with the label of the item you choose. Q

A = COc1cc2nn([C@H]3CC[C@H](N4CCN(C(=O)C5CN(c6cc(F)c(N7CCC(=O)NC7=O)c(F)c6)C5)CC4)CC3)cc2cc1NC(=O)c1cccc(C(F)(F)F)n1 [Example 176]
B = CC(C)(O)c1cc2nn([C@H]3CC[C@H](N4CCN(CCNc5cc(F)c(C6CCC(=O)NC6=O)c(F)c5)CC4)CC3)cc2cc1NC(=O)c1ccc2cc(C#N)cnn12 (stereo partly shown) [Example 135]
Select the item with the higher value of DC50 from the options A and B listed. Reply with the label of the item you choose. A
(A: 12 nM, B: 1.6 nM)
